- System: M14 melanoma
- Protocol description: NCI-60 one-dose screen, 48 h
- Run conditions: 10 µM unless noted
This is part of a sample that, as a whole, favours compounds with a hit. Of some 83,000 tested, about 20% had one in any assay. Active and inactive are the calls of the source. The calls were made as follows: active = growth percent below 10; inactive = the rest.
Outcomes: yes (1) for active, no (0) for inactive

1) CN(Cc1cnc2nc(N)nc(N)c2n1)c1ccc(C(=O)N[C@@H](CCc2nn[nH]n2)c2nn[nH]n2)cc1 = no (0)
2) O=c1ssc(Cl)c1-c1ccccc1 = no (0)
3) CC(C)(C)n1cc(-c2ccnc(NCCCNS(=O)(=O)c3ccccc3)c2)c(-c2ccccc2)n1 = no (0)
4) CCCCCCCC/C=C\CCCCCCCCOc1ccccc1CC(=O)NCC[N+](C)(C)C = no (0)
5) O=C(O)c1ccc2c(c1Cl)C(=O)c1ccccc1C2=O = no (0)
6) COc1ccc(NC(=O)c2nc(-c3cc(OC)c(OC)c(OC)c3)n(-c3cccc4ccccc34)n2)cc1OC = no (0)
7) COc1ccc(C2=NN(C(=O)c3cc(OC)c(OC)c(OC)c3)C(c3ccc(Cl)cc3)C2)cc1OC (configuration not stated) = yes (1)
8) CC(=O)C(C)Cc1cc2c(cc1C)C(C)(C)CCC2(C)C (configuration not stated) = no (0)
9) CNC(=O)CCN1CCN(CC/C=C2\c3ccccc3Sc3ccc(Cl)cc32)CC1 = no (0)
10) O=C(NCCc1ccc(O)c(O)c1)C12CC3CC(CC(C3)C1)C2 = no (0)
11) O=C(Cc1ccc(F)c(F)c1)Nc1cc(C2(C(F)(F)F)CC2)nn1Cc1ccccc1 = no (0)
12) Cc1cc(NCc2cc(Nc3ccnc4cc(Cl)ccc34)ccc2F)nc(N2CCN(C)CC2)n1 = yes (1)

Hello, the source for this data is PubChem BioAssay (NCI), in case you need it.
